The values you see were collected from PubChem BioAssay (NCI).

# Test system: ACHN renal
# ASSAY_NAME: NCI-60 one-dose screen, 48 h
# ASSAY_CONTEXT: 10 µM unless noted
This is part of a sample that, as a whole, favours compounds with a hit. Of some 83,000 tested, about 20% had one in any assay. Active and inactive are the calls of the source. How the source made its calls: active means growth percent below 10; inactive means the rest.
Permitted responses: active, inactive

Request: Status in this test for `O=C(N[C@@H]1CCCc2ccccc21)[C@H](CCC(=O)N1CCN(C2CCCCC2)CC1)N1C(=O)[C@@H](N2C(=O)OC[C@@H]2c2ccccc2)[C@H]1/C=C/c1ccccc1` ?
Result: inactive

====

# Tested on: UACC-257 melanoma
# ASSAY_NAME: NCI-60 one-dose screen, 48 h
# ASSAY_CONTEXT: 10 µM unless noted
# Method: Cells are grown in 96 well plates and exposed to the test compound for 48 hours. Compounds are tested at a single concentration, which is 10^-5 M for most compounds. The reported endpoint is percent growth (GI% or GIPRCNT), where numbers from 0 - 100% represent growth inhibition, and numbers from -100% - 0 represent cell death. For example, a value of 40 represents 60% growth inhibition. A value of 0 means no net growth occurred over the course of the experiment. […]
About 83,000 compounds went through this panel and 20% of them were active in at least one assay; those are over-represented in the sample as a whole. The source made the active and inactive calls. The calls were made as follows: active = growth percent below 10; inactive = the rest.
Permitted responses: class 1 (active), class 0 (inactive)

Example entries and their recorded answers appear below.
{"columns": ["COMPOUND", "CLASS_LABEL"],
 "data": [
  ["CC1=CC[C@@H]2C(C)(C)C(=O)CC[C@@]2(C)[C@@H]1COc1ccc2ccc(=O)oc2c1", "class 0"],
  ["Brc1ccc(-c2nnc3c4[nH]ccc4ncn23)cc1", "class 0"]
]}

Request: Status in this test for `O=[N+]([O-])c1ccc(O)c(-c2nc3ccccc3s2)c1` ?
Result: class 0

Request: Status in this test for `O=c1[nH]c2cc(Cl)c(Cl)cc2n2cc3ncccc3c12` ?
Result: class 0

Request: Status in this test for `CC(C)C1=NOC(=O)C1=Cc1cn(-c2cccnc2)nc1-c1ccccc1` ?
Result: class 0

Request: Status in this test for `CC1(C)CC[C@]2(C(=O)O)CC[C@]3(C)C(=CC[C@@H]4[C@@]5(C)C/C(=C/c6ccco6)C(=O)C(C)(C)[C@@H]5CC[C@]43C)[C@@H]2C1` ?
Result: class 1

====

# Tested on: HOP-92 NSCLC
# ASSAY_NAME: NCI-60 one-dose screen, 48 h
# ASSAY_CONTEXT: 10 µM unless noted
The panel holds about 83,000 compounds, 20% with a hit somewhere; the sample as a whole holds those more often. Activity calls are given as the source filed them. The calls were made as follows: active = growth percent below 10; inactive = the rest.
Permitted responses: yes (1) for active, no (0) for inactive

Example entries and their recorded answers appear below.
{"columns": ["COMPOUND", "CLASS_LABEL"],
 "data": [
  ["Fc1ccc(NC(=S)c2ccccc2)cc1", "no (0)"],
  ["Fc1cc2[nH]ncc2c2c3c(c(-c4cn[nH]c4C(F)(F)F)nc12)C1CCC3C1 (centres undefined)", "no (0)"],
  ["CCCCCCCCCCCCCC[n+]1cccc(C(N)=O)c1", "yes (1)"],
  ["CN(C)Cc1ccc[nH]1", "no (0)"],
  ["COc1cc2c(c(OC)c1OC)-c1ccc(NNC(N)=S)c(=O)cc1[C@@H](NC(C)=O)CC2", "yes (1)"],
  ["Cc1cc(SC#N)ncn1", "no (0)"],
  ["O=C1/C(=C\\c2cn(CC(O)CN3CCCCC3)c3ccccc23)c2ccccc2N1c1c(Cl)cccc1Cl (centres undefined)", "yes (1)"],
  ["CC(C)=CCC[C@](C)(O)[C@H]1CC[C@]2(C)[C@@H]1CC[C@@H]1[C@@]3(C)CC[C@H](OC(=O)CCC(=O)O)C(C)(C)[C@@H]3CC[C@]12C", "no (0)"],
  ["Cc1cnc(N)nc1OCC(C)(C)CNC(=O)c1cccc(-c2ccc(S(=O)(=O)Nc3ccc4c(c3)N(C(=O)C3CC3)CCC4)cc2)c1", "no (0)"],
  ["COc1c(C(C)=O)c(OCCCCOc2c(C(C)=O)c(OC)c3ccoc3c2OC)c(OC)c2occc12", "no (0)"]
]}

Request: Status in this test for `CC1(C)C(=O)/C(=C\c2cccnc2)C[C@]2(C)[C@H]3CC[C@@H]4[C@H]5[C@H](C(=O)/C=C/c6cccnc6)CC[C@]5(C(=O)O)CC[C@@]4(C)[C@]3(C)CC[C@@H]12` ?
Result: yes (1)

Request: Status in this test for CCN(CC)c1ccc2cc(C(Nc3ccc(Br)c(C(F)(F)F)c3)c3nnnn3C(C)(C)C)c(=O)oc2c1 (centres undefined) ?
Result: no (0)

Request: Status in this test for `Nc1ccc2c(c1)Cc1cc(NC(=O)C(F)(F)F)ccc1-2` ?
Result: no (0)

Request: Status in this test for COc1ccc2nc3c(cc2c1)C(=O)CC(C(F)(F)F)C3 (centres undefined) ?
Result: no (0)

Request: Status in this test for `Fc1cc2[nH]ncc2c2c3c(c(-c4cn[nH]c4)nc12)CCCC3` ?
Result: yes (1)

Request: Status in this test for `COc1ccc(C(=O)CSc2nccc(Nc3ccc(C(=O)O)cc3)n2)cc1` ?
Result: no (0)

Request: Status in this test for `CC(C)C1=NOC(=O)C1=Cc1cn(-c2ccccc2)nc1-c1ccccc1` ?
Result: no (0)

Request: Status in this test for Cc1ccc2c(c1)C(C)Cc1c(Cl)ncnc1N2C (centres undefined) ?
Result: no (0)

Request: Status in this test for `O=C1COCCN1c1ccc(Nc2nc(Cl)nc(N3CCOCC3)n2)cc1` ?
Result: no (0)

Request: Status in this test for `Cc1cccc(C[C@H](NC(=O)Nc2ccc(Cl)cc2F)C(=O)N[C@@H]2C(=O)N3C[C@H](OC(=O)CCN(C)C)C[C@H]3C(=O)N3CCCC[C@H]3C(=O)N[C@@H](C)C(=O)N3C[C@H](C)C[C@H]3C(=O)O[C@H]2C)c1` ?
Result: no (0)

Request: Status in this test for `C[n+]1cccc(NC(=O)c2ccc3ccc4ccc(C(=O)Nc5ccc[n+](C)c5)nc4c3n2)c1` ?
Result: no (0)

Request: Status in this test for `O=c1cc(-c2ccccc2)oc2cc(OCc3cn(Cc4ccc(F)cc4)nn3)cc(O)c12` ?
Result: yes (1)

Request: Status in this test for `Nc1nc(SCc2cccc([N+](=O)[O-])c2)c2[nH]cnc2n1` ?
Result: no (0)

Request: Status in this test for `CSc1nc(N)c(N=Nc2ccc(S(=O)(=O)Nc3nnc(C)s3)cc2)c(=O)[nH]1` ?
Result: no (0)

Request: Status in this test for `CCCCCCCCCCCCCCNC(=O)Nc1ccc(Cl)c(Cl)c1` ?
Result: yes (1)

Request: Status in this test for N#Cc1c(Cl)nc(SCC2CO2)nc1-c1ccccc1 (centres undefined) ?
Result: no (0)

====

# Tested on: OVCAR-5 ovarian
# ASSAY_NAME: NCI-60 one-dose screen, 48 h
# ASSAY_CONTEXT: 10 µM unless noted
Compounds without any hit were thinned out: in the full panel of roughly 83,000, 20% have a hit. Active and inactive are the calls of the source. How the source made its calls: active means growth percent below 10; inactive means the rest.
Permitted responses: yes (active), no (inactive)

Example entries and their recorded answers appear below.
{"columns": ["COMPOUND", "CLASS_LABEL"],
 "data": [
  ["CCOC(=O)Nc1ccc2c(c1)/C(=N\\NC(=S)NC)c1ccccc1-2", "no"],
  ["C#CCC(C(=O)OCC)C(=O)OCC", "no"],
  ["O=C(O)CSCc1nnc2n(Cc3ccccc3)c(=O)c3c4c(sc3n12)CCCC4", "no"]
]}

Request: Status in this test for `CC(C)=CC/C=C(/C)[C@H]1CC[C@]2(C)[C@@H]1CC[C@@H]1[C@@]3(C)CCCNC(C)(C)[C@@H]3CC[C@]12C` ?
Result: yes

Request: Status in this test for CC1(C(=O)O)CCC(N)(C(=O)O)C1(C)C (configuration not stated) ?
Result: no

Request: Status in this test for `Cc1ccccc1OC(=O)c1cccc(Cl)c1` ?
Result: no

Request: Status in this test for `CNc1cc(C(=O)O)nc(NC)n1` ?
Result: no

====

# Test system: HOP-62 NSCLC
# ASSAY_NAME: NCI-60 one-dose screen, 48 h
# ASSAY_CONTEXT: 10 µM unless noted
Compounds without any hit were thinned out: in the full panel of roughly 83,000, 20% have a hit. The source made the active and inactive calls. The calls were made as follows: active = growth percent below 10; inactive = the rest.
Permitted responses: true = active, false = inactive

Example entries and their recorded answers appear below.
{"columns": ["COMPOUND", "CLASS_LABEL"],
 "data": [
  ["CCN(CC)c1ccc2cc(C(Nc3ccc(C)cc3)c3nnnn3C(C)(C)C)c(=O)oc2c1 (centres undefined)", "false"],
  ["CC(C)OC(=O)Nc1cc(F)c(F)cc1F", "false"],
  ["CCCCOC(=O)c1c(C)[nH]c(/C=C2\\N=C(c3ccc[nH]3)C=C2OC)c1C", "true"],
  ["CCN(CC)CCCNCc1cc(-c2ccccc2)nc2ccccc12", "false"],
  ["CC1(C)S[C@@H]2[C@H](NC(=O)[C@H](C(=O)O)c3cccs3)C(=O)N2[C@H]1C(=O)O", "false"]
]}

Request: Status in this test for `Cc1ccc(NC(=S)/N=c2/n(-c3ccccc3)nc3n2CCN3C2=NCCN2)cc1` ?
Result: false
